Reported pIC50 by item:
Biological target: full length human TREX1 (Homo sapiens, UniProt Q9NSU2)
Construct: N-terminally His-Tev tagged full length human TREX1; His-TEV (His tag with TEV site) (N)
Sequence (Q9NSU2 1-314): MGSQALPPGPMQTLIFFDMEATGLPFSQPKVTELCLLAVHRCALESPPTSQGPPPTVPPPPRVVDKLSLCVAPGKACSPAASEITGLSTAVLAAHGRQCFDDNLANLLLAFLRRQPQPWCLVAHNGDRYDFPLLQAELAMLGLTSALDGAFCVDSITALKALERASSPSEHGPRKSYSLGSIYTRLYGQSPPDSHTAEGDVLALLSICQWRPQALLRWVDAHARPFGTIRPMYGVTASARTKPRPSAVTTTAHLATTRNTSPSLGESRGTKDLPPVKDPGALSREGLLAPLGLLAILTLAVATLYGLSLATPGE
Assay: TREX1 Biochemical Assay (fluorescence, dsDNA substrate degradation)
Conditions: 150 pM TREX1, 60 nM dsDNA substrate, 25 minutes at room temperature
pIC50: −log10 of the molar value.

{"columns": ["Compound", "pIC50"],
 "data": [
  ["CN(c1nc(C(=O)Nc2cnoc2)c(O)c(=O)n1C)C(c1ccccc1)c1ccccn1 (single isomer, unassigned) [Example 42]", "> 7.00"],
  ["CCN(c1nc(C(=O)Nc2cnoc2)c(O)c(=O)n1C)C(c1ccccc1)c1ccccc1Cl (single isomer, unassigned) [Example 91]", "> 7.00"],
  ["Cc1cccc(Cl)c1C(c1ccccn1)N(C)c1nc(C(=O)Nc2cnoc2)c(O)c(=O)n1C (single isomer, unassigned) [Example 63]", "> 7.00"]
]}

All figures here come from patent US20220289728A1.
